The measured values listed here are drawn from PubChem BioAssay AID1851.

# Tested Target: Cytochrome P450 2C19 (Homo sapiens) (UniProt P33261)
# Sequence (P33261 whole entry, looked up): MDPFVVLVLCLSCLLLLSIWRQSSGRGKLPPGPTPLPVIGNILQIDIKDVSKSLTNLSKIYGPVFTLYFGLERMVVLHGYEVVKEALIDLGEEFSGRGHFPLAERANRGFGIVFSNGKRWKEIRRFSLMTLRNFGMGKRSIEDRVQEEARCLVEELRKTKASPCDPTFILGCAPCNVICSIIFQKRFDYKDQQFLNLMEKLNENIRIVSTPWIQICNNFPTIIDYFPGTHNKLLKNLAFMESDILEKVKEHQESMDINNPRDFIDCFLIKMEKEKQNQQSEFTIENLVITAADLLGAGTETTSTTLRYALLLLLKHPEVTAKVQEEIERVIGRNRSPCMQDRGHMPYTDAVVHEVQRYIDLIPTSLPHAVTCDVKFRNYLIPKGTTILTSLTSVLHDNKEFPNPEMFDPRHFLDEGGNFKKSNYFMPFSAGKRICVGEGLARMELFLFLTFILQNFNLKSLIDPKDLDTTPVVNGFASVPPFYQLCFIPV
# Test Protocol: Cytochrome panel assay with activity outcomes
# Run Parameters: recombinant CYP, pro-luciferin dealkylation, luminescence, p450-cyp2c19; series mostly up to 57.1 µM
# Description: The P450 gene superfamily is involved in the metabolism and clearance of xenobiotics. This assay used various human CYP P450 isozymes to measure the dealkylation of various pro-luciferin substrates to luciferin. The luciferin is then measured by luminescence after the addition of a luciferase detection reagent. […] Inhibitors and some substrates limit the production of luciferin, and decrease measured luminescence. […] 8, Detection, 1 sec, ViewLux luminescent read […]
Out of some 16,000 compounds screened, about 5,800 (36%) were called active. Roughly 23% stayed inconclusive and do not appear here. Calls come from the whole dose curve; as a rule, active = well fitted curve in the direction sought with a large enough effect; inconclusive = small, poorly fitted or top-dose-only effect, or effect the other way; inactive = no such curve, though single readings can be large or run the other way. Some of the results follow.
Possible outcomes: active, inactive

Molecule: Cc1cc(Br)ccc1NCc1ccccn1
Tested Target: Cytochrome P450 2C19 (Homo sapiens) (UniProt P33261)
Cat: active
--
Molecule: Cc1[nH]c2ccccc2c1/C=C/c1cc[n+](C)cc1
Tested Target: Cytochrome P450 2C19 (Homo sapiens) (UniProt P33261)
Cat: inactive
--
Molecule: CCN(CC)CCCNC(=O)CC1Sc2ccccc2NC1=O (stereo not given)
Tested Target: Cytochrome P450 2C19 (Homo sapiens) (UniProt P33261)
Cat: inactive
--
Molecule: CSc1nnc2c(n1)OC(C)N(C(=O)c1ccccc1)c1ccccc1-2 (stereo not given)
Tested Target: Cytochrome P450 2C19 (Homo sapiens) (UniProt P33261)
Cat: inactive
--
Molecule: CNCCc1ccccn1
Tested Target: Cytochrome P450 2C19 (Homo sapiens) (UniProt P33261)
Cat: inactive
